Assay: Cytotoxicity against human PBMC assessed as cell viability measured during cytokines production assay at 100 uM after 21 hrs by MTS assay
Assay type: cell-based
Conditions: PBMC (peripheral blood mononuclear cells)
Would you kindly list cytotoxicity at 21 h, 100 µM for each of these molecules?
One number for each entry, in %.

Examples with their reported cytotoxicity at 21 h, 100 µM follow.
• OCCC1CC(c2cn(-c3cccc(C(F)(F)F)c3)c3ccccc23)=NO1 (configuration not stated) = 9
• O=C1CCCN1C1CC(c2ccoc2)=NO1 (configuration not stated) = 5
• Fc1ccc(C2CC(c3ccoc3)=NO2)cc1 (configuration not stated) = 4
• COC(=O)CC1(C(=O)OC)CC(c2ccoc2)=NO1 (configuration not stated) = 8
• CC(C)(C)C(=O)OC1CC(c2cn(-c3cccc(C(F)(F)F)c3)c3ccccc23)=NO1 (configuration not stated) = 15

// for each molecule below, give its cytotoxicity at 21 h, 100 µM
1. O=C1c2ccccc2C(=O)N1C1CC(c2cn(-c3cccc(C(F)(F)F)c3)c3ccccc23)=NO1 (configuration not stated)
2. c1ccc(C2CC(c3ccoc3)=NO2)cc1 (configuration not stated)

1: 11; 2: 16

* * *

Would you kindly list inhibition for each of these molecules?
Molecular target: Macrophage migration inhibitory factor (Homo sapiens)
Sequence (whole entry): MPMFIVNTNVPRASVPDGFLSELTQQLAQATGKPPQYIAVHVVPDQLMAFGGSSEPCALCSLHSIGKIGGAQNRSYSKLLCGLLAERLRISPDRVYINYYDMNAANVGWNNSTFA
Experiment: Inhibition of human purified MIF tautomerase activity at 100 uM after 30 mins
One number for each entry, in %.

Examples with their reported inhibition follow.
* O=C1CCCN1C1CC(c2ccoc2)=NO1 (centres undefined) | 18
* CC(C)(C)C(=O)OC1CC(c2ccoc2)=NO1 (centres undefined) | 30
* COC(=O)C1(C)CC(c2cn(-c3cccc(C(F)(F)F)c3)c3ccccc23)=NO1 (centres undefined) | 66
* CC1(C(=O)O)CC(c2cn(-c3cccc(C(F)(F)F)c3)c3ccccc23)=NO1 (centres undefined) | 17
* COC(=O)CC1(C(=O)OC)CC(c2ccoc2)=NO1 (centres undefined) | 47
* FC(F)(F)c1ccc(C2CC(c3ccoc3)=NO2)cc1 (centres undefined) | 41
* O=C1c2ccccc2C(=O)N1C1CC(c2cn(-c3cccc(C(F)(F)F)c3)c3ccccc23)=NO1 (centres undefined) | 47
* CC1(C(=O)O)CC(c2ccoc2)=NO1 (centres undefined) | 29
* COC(=O)CC1CC(c2ccc(O)cc2)=NO1 (centres undefined) | 59
* OCCC1CC(c2ccoc2)=NO1 (centres undefined) | 23

// for each molecule below, give its inhibition
1. c1ccc(C2CC(c3ccoc3)=NO2)cc1 (centres undefined)
2. OCCC1CC(c2cn(-c3cccc(C(F)(F)F)c3)c3ccccc23)=NO1 (centres undefined)
3. c1ccc2c(c1)ccn2CC1CC(c2ccoc2)=NO1 (centres undefined)
4. FC(F)(F)c1cccc(-n2cc(C3=NOC(C4CCCCC4)C3)c3ccccc32)c1 (centres undefined)
5. COC(=O)C1(C)CC(c2ccoc2)=NO1 (centres undefined)
6. Fc1ccc(C2CC(c3ccoc3)=NO2)cc1 (centres undefined)
7. O=C1c2ccccc2C(=O)N1C1CC(c2ccoc2)=NO1 (centres undefined)

1. 59
2. 91
3. 100
4. 100
5. 22
6. 41
7. 0

// for each molecule below, give its inhibition
1. FC(F)(F)c1cccc(-n2cc(C3=NOC(c4ccccc4)C3)c3ccccc32)c1 (centres undefined)
2. c1cc(C2=NOC(CN3CCOCC3)C2)co1 (centres undefined)
3. Fc1ccc(C2CC(c3cn(-c4cccc(C(F)(F)F)c4)c4ccccc34)=NO2)cc1 (centres undefined)
4. COC(=O)CC1(C(=O)OC)CC(c2cn(-c3cccc(C(F)(F)F)c3)c3ccccc23)=NO1 (centres undefined)
5. O=C1CCCN1C1CC(c2cn(-c3cccc(C(F)(F)F)c3)c3ccccc23)=NO1 (centres undefined)
6. FC(F)(F)c1cccc(-n2cc(C3=NOC(Cn4ccc5ccccc54)C3)c3ccccc32)c1 (centres undefined)

71
56
100
76
10
100

Need inhibition of CC(C)(C)C(=O)OC1CC(c2cn(-c3cccc(C(F)(F)F)c3)c3ccccc23)=NO1 (centres undefined) , thanks.
100
